- assay.system: T1, Human full length B7-H3 (human, UniProt Q5ZPR3 29-534)
- T1 sequence: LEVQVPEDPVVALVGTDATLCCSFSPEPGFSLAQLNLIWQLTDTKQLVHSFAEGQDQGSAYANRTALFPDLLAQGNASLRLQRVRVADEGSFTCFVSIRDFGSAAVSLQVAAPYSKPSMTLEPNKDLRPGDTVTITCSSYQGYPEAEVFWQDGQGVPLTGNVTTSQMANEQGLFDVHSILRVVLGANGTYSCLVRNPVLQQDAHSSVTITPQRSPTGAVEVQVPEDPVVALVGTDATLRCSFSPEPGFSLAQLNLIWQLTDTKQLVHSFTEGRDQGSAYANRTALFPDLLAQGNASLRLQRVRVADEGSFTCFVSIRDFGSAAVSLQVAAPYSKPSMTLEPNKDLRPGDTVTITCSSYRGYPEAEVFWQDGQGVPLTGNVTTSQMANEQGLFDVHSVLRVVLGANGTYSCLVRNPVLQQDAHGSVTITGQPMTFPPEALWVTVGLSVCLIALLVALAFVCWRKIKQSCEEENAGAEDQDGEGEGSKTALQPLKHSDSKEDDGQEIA
- assay.name: cell-based or functional assay
Entries annotated with measured EC50 nM H1650 (in vitro tumor cell cytotoxicity)
Just the number please, in nM, no unit attached.

IN: Request the reported EC50 nM H1650 (in vitro tumor cell cytotoxicity) associated with huAb3v2.5-SR (antibody, human IgG1, kappa, L234A L235A, V domains shown, synthon SR on interchain Cys) VH: EVQLVQSGAEVKKPGSSVKVSCKASGYTFSSYWMHWVRQAPGQGLEWIGLIHPESGSTNYNEMFKNRATLTVDRSTSTAYMELSSLRSEDTAVYYCAGGGRLYFDYWGQGTTVTVSS VL: DIVMTQSPLSLPVTPGEPASISCRSSQSLVHSNRDTYLRWYLQKPGQSPQLLIYKVSNRFSGVPDRFSGSGSGTDFTLKISRVEAEDVGVYYCSQSTHVPYTFGGGTKVEIKR
OUT: 0.59

IN: Request: huAb13v1-CZ (antibody, human IgG1, kappa, L234A L235A, V domains shown, synthon CZ on interchain Cys) VH: EVQLQESGPGLVKPSETLSLTCAVTGYSITSGYSWHWIRQFPGNGLEWMGYIHSSGSTNYNPSLKSRISISRDTSKNQFFLKLSSVTAADTAVYYCAGYDDYFEYWGQGTTVTVSS VL: DIQMTQSPSSLSASVGDRVTITCKASQNVGFNVAWYQQKPGKSPKALIYSASYRYSGVPSRFSGSGSGTDFTLTISSLQPEDFAEYFCQQYNWYPFTFGQGTKLEIKR
OUT: 0.18

IN: Request: huAb3v2.5-TX (antibody, human IgG1, kappa, L234A L235A, V domains shown, synthon TX on interchain Cys) VH: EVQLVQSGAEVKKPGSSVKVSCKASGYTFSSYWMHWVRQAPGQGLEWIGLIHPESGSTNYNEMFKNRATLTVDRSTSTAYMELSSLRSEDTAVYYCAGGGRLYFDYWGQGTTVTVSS VL: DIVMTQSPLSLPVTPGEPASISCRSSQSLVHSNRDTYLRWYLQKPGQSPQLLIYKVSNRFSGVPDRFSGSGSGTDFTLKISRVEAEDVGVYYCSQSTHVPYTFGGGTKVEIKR
OUT: 0.62

IN: Request: huAb3v2.6-AAA (antibody, human IgG1, kappa, L234A L235A, V domains shown, synthon AAA on interchain Cys) VH: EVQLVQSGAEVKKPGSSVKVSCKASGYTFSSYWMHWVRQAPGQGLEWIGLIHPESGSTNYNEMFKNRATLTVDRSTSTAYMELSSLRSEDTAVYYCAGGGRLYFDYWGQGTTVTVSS VL: DIVMTQSPLSLPVTPGEPASISCRSSQSLVHSNQDTYLRWYLQKPGQSPQLLIYKVSNRFSGVPDRFSGSGSGTDFTLKISRVEAEDVGVYYCSQSTHVPYTFGGGTKVEIKR
OUT: 1.24
